Target: Orexin receptor type 2 (Homo sapiens)
Sequence (O43614 whole entry): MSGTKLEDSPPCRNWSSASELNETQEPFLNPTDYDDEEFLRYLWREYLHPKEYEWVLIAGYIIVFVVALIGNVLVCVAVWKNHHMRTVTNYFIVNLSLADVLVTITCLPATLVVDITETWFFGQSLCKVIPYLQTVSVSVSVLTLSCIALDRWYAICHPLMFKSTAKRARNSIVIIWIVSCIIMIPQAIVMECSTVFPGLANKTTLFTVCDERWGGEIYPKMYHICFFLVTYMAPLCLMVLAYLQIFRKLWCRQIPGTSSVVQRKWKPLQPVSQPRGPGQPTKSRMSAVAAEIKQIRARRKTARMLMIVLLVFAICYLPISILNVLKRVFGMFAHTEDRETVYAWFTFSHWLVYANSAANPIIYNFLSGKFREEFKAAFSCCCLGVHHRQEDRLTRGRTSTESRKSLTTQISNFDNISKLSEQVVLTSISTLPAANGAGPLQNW
Experiment: FLIPR Ca2+ Flux Assay: Assay methodology using FLIPR Ca2+ Flux Assay (Okumura et al., Biochem. Biophys. Res. Comm. 280:976-981, 2001).
readout type: pKi
pKi is a log-scale quantity: -log10 of the concentration expressed in molar.

Summary line: `COc1ccc(CNC(=O)c2cc(-c3cncc(C)c3)ncc2-c2ccccc2)nc1OC` , Orexin receptor type 2 (Homo sapiens), reported pKi = 9.14

Taken from ChEMBL document CHEMBL3638502.
